- protocolDetails: Solubility
- Format: physicochemical
- experimentalContext: aqueous media, aqueous buffer; across the physiological pH range; read-out: aqueous solubility
attributeMeasured: solubility

[
  {
    "compound": "Cn1c(=O)n([C@@H]2CCC(=O)NC2=O)c2cccc(C#CCOC3CCN(C[C@H]4CC[C@H](n5cc(NC(=O)c6cnn7ccc(N8C[C@H]9C[C@@H]8CO9)nc67)c(C(F)F)n5)CC4)CC3)c21 [Compound A]",
    "attributeMeasured": "solubility",
    "reportedMeasurement": "≤ 3000 µg/mL"
  }
]

====

- protocolDetails: Phase 1 MAD plasma PK in healthy volunteers
- Type: in vivo, human
- experimentalContext: human, plasma, oral; 25 mg QD, Day 14, median (range)

[
  {
    "compoundSmiles": "Cn1c(=O)n([C@@H]2CCC(=O)NC2=O)c2cccc(C#CCOC3CCN(C[C@H]4CC[C@H](n5cc(NC(=O)c6cnn7ccc(N8C[C@H]9C[C@@H]8CO9)nc67)c(C(F)F)n5)CC4)CC3)c21",
    "Tmax [h]": 8
  }
]

====

- protocolDetails: clinical
- experimentalContext: human, in vivo, po, 1000 mg

[
  {
    "compoundSmiles": "Cn1c(=O)n([C@@H]2CCC(=O)NC2=O)c2cccc(C#CCOC3CCN(C[C@H]4CC[C@H](n5cc(NC(=O)c6cnn7ccc(N8C[C@H]9C[C@@H]8CO9)nc67)c(C(F)F)n5)CC4)CC3)c21",
    "Tmax": "20 h"
  }
]

====

- protocolDetails: clinical
- experimentalContext: human, in vivo, po, 600 mg

[
  {
    "compound": "Cn1c(=O)n([C@@H]2CCC(=O)NC2=O)c2cccc(C#CCOC3CCN(C[C@H]4CC[C@H](n5cc(NC(=O)c6cnn7ccc(N8C[C@H]9C[C@@H]8CO9)nc67)c(C(F)F)n5)CC4)CC3)c21 [Compound A]",
    "Tmax": "12 h"
  }
]

====

- protocolDetails: Phase 1 MAD plasma PK in healthy volunteers
- Assay type: in vivo, human
- experimentalContext: human, plasma, oral; 200 mg QD, Day 14 steady state, geometric mean (% CV)
attributeMeasured: Cmax (ng/mL)

[
  {
    "compoundSmiles": "Cn1c(=O)n([C@@H]2CCC(=O)NC2=O)c2cccc(C#CCOC3CCN(C[C@H]4CC[C@H](n5cc(NC(=O)c6cnn7ccc(N8C[C@H]9C[C@@H]8CO9)nc67)c(C(F)F)n5)CC4)CC3)c21",
    "attributeMeasured": "Cmax",
    "displayUnit": "ng/mL",
    "reportedMeasurement": 25.2
  }
]

====

- protocolDetails: clinical
- experimentalContext: human, in vivo, po, 75 mg
attributeMeasured: Tmax

[
  {
    "compound": "Cn1c(=O)n([C@@H]2CCC(=O)NC2=O)c2cccc(C#CCOC3CCN(C[C@H]4CC[C@H](n5cc(NC(=O)c6cnn7ccc(N8C[C@H]9C[C@@H]8CO9)nc67)c(C(F)F)n5)CC4)CC3)c21 [Compound A]",
    "attributeMeasured": "Tmax",
    "reportedMeasurement": "7 h"
  }
]

====

- protocolDetails: Phase 1 MAD Compound A concentration in skin
- Type: in vivo
- experimentalContext: human, oral, Day 14, once daily dosing, read-out: Ctrough (pre-dose) levels in skin relative to plasma
attributeMeasured: Kp at 14 day

[
  {
    "compound": "Cn1c(=O)n([C@@H]2CCC(=O)NC2=O)c2cccc(C#CCOC3CCN(C[C@H]4CC[C@H](n5cc(NC(=O)c6cnn7ccc(N8C[C@H]9C[C@@H]8CO9)nc67)c(C(F)F)n5)CC4)CC3)c21 [Compound A]",
    "reportedMeasurement": "~10"
  }
]
